assay: Metabolism stability test; type: in vitro ADME; details: human liver microsomes, 30 minutes, 37° C., NADPH, 0.5 μmol/L of the compound
Hi there, I'd appreciate the recorded remaining rate after reaction (result heading prints '% inhibition') for every entry that follows.
Reply with just the number (in %).

Input: Request the reported remaining rate after reaction (result heading prints '% inhibition') associated with CC(C)Oc1ccc(S(=O)(=O)N2C[C@@H](C)[C@@H](n3nc(CC(=O)O)c4ccc(F)cc43)C2)cn1
Output: 86.9

Input: Input CC(C)Oc1ccc(S(=O)(=O)N2CC[C@H](n3nc(CC(=O)O)c4ccc(F)cc43)[C@H](C)C2)cc1
Output: 99.2

Input: Input CC(C)Oc1ccc(S(=O)(=O)N2C[C@@H](C)[C@@H](n3nc(CC(=O)O)c4ccc(F)cc43)C2)c(F)c1
Output: 97.2

Input: Input CC(C)Oc1ccc(S(=O)(=O)N2C[C@@H](N3CCCC3)[C@@H](n3nc(CC(=O)O)c4ccc(F)cc43)C2)cc1
Output: 91.8

====

biological target: CRTH2 (Homo sapiens (Human), UniProt Q9Y5Y4); test: CRTH2 receptor binding inhibitory activity ([3H]-PGD2 displacement, membranes of CRTH2-expressing K562 cell); conditions: CRTH2 receptor binding, [3H]-PGD2 displacement, membrane of CRTH2-expressing K562 cell; categorized AAAA/AAA; read-out: Ki
Sequence (Q9Y5Y4 whole entry): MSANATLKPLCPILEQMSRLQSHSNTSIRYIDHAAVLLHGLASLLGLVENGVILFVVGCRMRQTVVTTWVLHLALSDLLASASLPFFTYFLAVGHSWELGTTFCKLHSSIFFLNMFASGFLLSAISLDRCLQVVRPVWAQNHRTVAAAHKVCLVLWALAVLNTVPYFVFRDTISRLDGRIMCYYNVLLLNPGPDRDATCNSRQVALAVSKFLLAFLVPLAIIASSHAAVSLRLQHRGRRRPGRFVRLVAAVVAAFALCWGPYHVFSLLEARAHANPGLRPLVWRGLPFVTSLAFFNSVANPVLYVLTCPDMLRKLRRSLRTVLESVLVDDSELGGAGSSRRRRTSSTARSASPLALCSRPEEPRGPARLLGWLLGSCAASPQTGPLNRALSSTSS
pKi: −log10 of the molar value.
Hi there, I'd appreciate the recorded pKi for every entry that follows.

Input: Request the reported pKi associated with CC(C)Oc1ccc(S(=O)(=O)N2C[C@H](n3nc(CC(=O)O)c4ccc(F)cc43)C[C@@H]2CO)cc1
Output: 5.30 to 7.00

Input: Input CCOc1ccc(S(=O)(=O)N2C[C@@H](C)[C@@H](n3nc(CC(=O)O)c4ccc(F)cc43)C2)s1
Output: > 7.00

Input: Input CC(C)Oc1ccc(S(=O)(=O)N2C[C@H](n3nc(CC(=O)O)c4ccc(F)cc43)CC23CC3)cc1
Output: > 7.00

Input: Input CC(C)Oc1ccc(S(=O)(=O)N2C[C@@H](C)[C@@H](n3nc(CC(=O)O)c4ccc(C(F)(F)F)cc43)C2)cn1
Output: > 7.00

Input: Input CCOc1ccc(S(=O)(=O)N2C[C@@H](C)[C@@H](n3nc(CC(=O)O)c4ccccc43)C2)c(CO)c1
Output: > 7.00

Input: Input CC(C)Oc1ccc(S(=O)(=O)N2C[C@@H](CF)[C@@H](n3nc(CC(=O)O)c4ccc(F)cc43)C2)cc1
Output: > 7.00

Input: Input CCOc1ccc(S(=O)(=O)N2C[C@@H](C)[C@@H](n3nc(CC4=NNC(=O)C4)c4ccccc43)C2)cc1
Output: 5.30 to 7.00

====

biological target: CRTH2 (Homo sapiens (Human), UniProt Q9Y5Y4); assay: CRTH2 receptor binding inhibitory activity ([3H]-PGD2 displacement, membranes of CRTH2-expressing K562 cell); conditions: CRTH2 receptor binding, [3H]-PGD2 displacement, membrane of CRTH2-expressing K562 cell; categorized AAAA/AAA; read-out: Ki
METRIC: Ki

Input: Request the reported Ki associated with CC(C)Oc1ccc(S(=O)(=O)N2C[C@H](n3nc(CC(=O)O)c4ccc(F)cc43)C[C@@H]2COc2nc3ccccc3s2)cc1
Output: 0.1 to 5 µM

Input: Input CCOc1cc(F)c(S(=O)(=O)N2C[C@@H](C)[C@@H](n3nc(CC(=O)O)c4ccc(F)cc43)C2)c(F)c1
Output: < 0.1 µM

Input: Input CC(C)Oc1ccc(S(=O)(=O)N2C[C@@H](n3nc(CC(=O)O)c4ccc(F)cc43)C[C@@H]2c2ccccc2F)cc1
Output: 0.1 to 5 µM

====

Hi there, I'd appreciate the recorded pIC50 for every entry that follows.
target: Human DP1 receptor (Homo sapiens (Human), UniProt Q13258); experiment: Human DP1 inhibitory activity in DP1-expressing cell (PGD2-induced cAMP); assay type: cell-based; conditions: category of cAMP IC50, human DP1 receptor expressing Jurkut cell
Sequence (Q13258 whole entry): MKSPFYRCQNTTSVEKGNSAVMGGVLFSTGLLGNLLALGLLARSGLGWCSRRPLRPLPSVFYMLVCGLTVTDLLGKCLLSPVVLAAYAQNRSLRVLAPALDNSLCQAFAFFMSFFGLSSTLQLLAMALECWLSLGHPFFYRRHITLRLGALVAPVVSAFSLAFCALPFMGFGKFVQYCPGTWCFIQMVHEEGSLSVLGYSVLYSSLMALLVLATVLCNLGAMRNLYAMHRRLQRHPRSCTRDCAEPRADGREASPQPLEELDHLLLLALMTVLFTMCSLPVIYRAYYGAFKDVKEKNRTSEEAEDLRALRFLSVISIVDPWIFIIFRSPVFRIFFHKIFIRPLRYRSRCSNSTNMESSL
pIC50: −log10 of the molar value.

Input: Request the reported pIC50 associated with Cc1ccc2c(CC(=O)O)nn([C@@H]3C[C@H](C(F)F)N(S(=O)(=O)c4ccc(OC(C)C)cc4)C3)c2c1
Output: > 7.00

Input: Input C[C@@H]1CN(S(=O)(=O)c2ccc(OCCOc3ccccc3)cc2)C[C@@H]1n1nc(CC(=O)O)c2ccccc21
Output: 5.30 to 7.00

Input: Input CCOc1ccc(S(=O)(=O)N2C[C@@H](C)[C@@H](n3nc(C(F)C(=O)O)c4ccccc43)C2)cc1 (stereo partly drawn) [Compound I-337]
Output: 5.30 to 7.00

Input: Input C[C@@H]1CN(S(=O)(=O)c2ccc(C3CC3)cc2Cl)C[C@@H]1n1nc(CC(=O)O)c2ccc(F)cc21
Output: > 7.00

Input: Input CCOc1ccc(S(=O)(=O)N2C[C@@H](C)[C@@H](n3nc(CC(=O)O)c4ccc(C)cc43)C2)cc1
Output: > 7.00

Input: Input CCOc1ccc(S(=O)(=O)N2C[C@H](n3nc(CC(=O)O)c4ccccc43)[C@@](C)(F)C2)cc1 [Compound I-309]
Output: > 7.00

Input: Input CC(C)Oc1ccc(S(=O)(=O)N2C[C@H](n3nc(CC(=O)O)c4ccc(F)cc43)C[C@@H]2COc2ccccc2)cc1
Output: > 7.00

Input: Input CC(C)Oc1ccc(S(=O)(=O)N2C[C@H](n3nc(CC(=O)O)c4ccc(Cl)cc43)C[C@@H]2C)cc1
Output: > 7.00

Input: Input CC(C)Oc1ccc(S(=O)(=O)N2C[C@H](n3nc(CC(=O)O)c4ccc(Cl)cc43)C[C@@H]2C(F)F)cc1
Output: > 7.00

Input: Input CCOc1ccc(S(=O)(=O)N2C[C@@H](C)[C@@H](n3nc(CC(=O)O)c4ccc(C5CCCCC5)cc43)C2)cc1
Output: 5.30 to 7.00

Input: Input Cc1ccc(S(=O)(=O)N2C[C@@H](C)[C@@H](n3nc(CC(=O)O)c4ccc(F)cc43)C2)cc1
Output: 5.30 to 7.00

Input: Input CC(C)Oc1ccc(S(=O)(=O)N2C[C@H](n3nc(CC(=O)O)c4ccc(F)cc43)C[C@H]2c2ccncc2)cc1
Output: 5.30 to 7.00

Input: Input CC(C)Oc1ccc(S(=O)(=O)N2[C@H](C)C[C@H](n3nc(CC(=O)O)c4ccc(F)cc43)C[C@@H]2C)cc1
Output: > 7.00

Input: Input CC(C)Oc1ccc(S(=O)(=O)N2CC(F)[C@@H](n3nc(CC(=O)O)c4ccc(F)cc43)C2)cc1 (stereo partly drawn)
Output: 5.30 to 7.00

Input: Input CCOc1ccc(S(=O)(=O)N2C[C@H](n3nc(CC(=O)O)c4ccccc43)C[C@@H]2C)cc1
Output: > 7.00

Input: Input CC(C)Oc1ccc(S(=O)(=O)N2C[C@H](n3nc(CC(=O)O)c4ccc(F)cc43)C[C@@H]2CF)cc1
Output: > 7.00

Input: Input CC(C)Oc1ccc(S(=O)(=O)N2CC[C@@H](n3nc(CC(=O)O)c4ccc(F)cc43)[C@H]2C)cc1
Output: 5.30 to 7.00

Input: Input CC(C)Oc1ccc(S(=O)(=O)N2C[C@H](n3nc(CC(=O)O)c4ccc(F)cc43)C[C@H]2CF)cc1
Output: 5.30 to 7.00

Input: Input C#Cc1cc(OCC)ccc1S(=O)(=O)N1C[C@@H](C)[C@@H](n2nc(CC(=O)O)c3ccccc32)C1
Output: 5.30 to 7.00

Input: Input CC(C)Oc1ccc(S(=O)(=O)N2C[C@H](n3nc(CC(=O)O)c4ccc(F)cc43)C[C@H]2C)cc1
Output: 5.30 to 7.00

Input: Input CC(C)Oc1ccc(S(=O)(=O)N2C[C@H](n3nc(CC(=O)O)c4ccccc43)C[C@@H]2C(F)F)cc1
Output: > 7.00

Input: Input Cc1ccc2c(c1)c(CC(=O)O)nn2[C@H]1CN(S(=O)(=O)c2ccc(OC(C)C)cc2)C[C@H]1C
Output: > 7.00

Input: Input CCOc1ccc(S(=O)(=O)N2C[C@@H](C)[C@@H](n3c(C)c(CC(=O)O)c4ccccc43)C2)cn1
Output: > 7.00

Input: Input Cc1ccc2c(CC(=O)O)nn([C@H]3CN(S(=O)(=O)c4ccc(OC(C)C)nc4)C[C@H]3C)c2c1
Output: > 7.00

Input: Input COc1ccc(S(=O)(=O)N2C[C@@H](C)[C@@H](n3nc(CC(=O)O)c4ccc(F)cc43)C2)cn1
Output: 5.30 to 7.00

Input: Input CCOc1ncc(S(=O)(=O)N2C[C@@H](C)[C@@H](n3nc(CC(=O)O)c4ccc(C)cc43)C2)s1
Output: > 7.00

Input: Input CC(C)Oc1ccc(S(=O)(=O)N2C[C@@H](C)[C@@H](n3nc(CC(=O)O)c4c(F)cccc43)C2)cc1
Output: > 7.00
